# System: HOP-92 NSCLC
# protocol.text: NCI-60 one-dose screen, 48 h (100 = growth as untreated, 0 = no growth, -100 = all killed)
# assay.setup: 10 µM unless noted
Compounds without any hit were thinned out: in the full panel of roughly 83,000, 20% have a hit.
Strictly below 10% in growth: y. Otherwise: n.

// query Regarding `COc1ccccc1NC(=O)N/C(N)=N/c1nc2ccccc2s1` , kindly confirm whether its growth is beneath 10%.
// result n

// query `NC(N)=NN=C(c1ccccc1)c1ccccc1` , same question.
// result n

// query Cc1ccc(C(=O)C2=C(O)C(=O)N(Cc3cccnc3)C2c2ccccc2F)o1 (stereo not given) , same question.
// result n

// query COc1cc2c(cc1-c1c(C)noc1C)ncc1nc(C3CCC(F)(F)CC3)n(C3CCC(OC(F)F)CC3)c12 (stereo not given) , same question.
// result n

// query O=C1CC(N2C(=O)/C(=C/C(Cl)=C\c3ccc([N+](=O)[O-])cc3)SC2=S)C(=O)N1c1ccc(O)cc1 (stereo not given) , same question.
// result y
